Recorded pEC50, one value per entry.
Biological target: THR alpha (Homo sapiens)
Construct: expressed in transfected cells; host or cells: HEK293T (ATCC CRL-3216)
Sequence (P10827 1-410 isoform P10827-2): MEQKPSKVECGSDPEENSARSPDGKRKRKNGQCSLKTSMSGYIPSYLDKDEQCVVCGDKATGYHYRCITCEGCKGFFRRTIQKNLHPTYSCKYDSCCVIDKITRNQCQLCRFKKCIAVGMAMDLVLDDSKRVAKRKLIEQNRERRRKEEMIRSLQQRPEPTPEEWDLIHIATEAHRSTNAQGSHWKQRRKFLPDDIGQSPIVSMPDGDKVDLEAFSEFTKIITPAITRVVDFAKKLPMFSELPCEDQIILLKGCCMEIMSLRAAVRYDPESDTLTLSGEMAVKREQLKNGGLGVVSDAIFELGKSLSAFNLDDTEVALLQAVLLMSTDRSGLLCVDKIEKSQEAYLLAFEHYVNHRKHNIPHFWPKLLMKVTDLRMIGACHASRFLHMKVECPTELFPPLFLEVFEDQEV
Sequence (P19793 whole entry partner): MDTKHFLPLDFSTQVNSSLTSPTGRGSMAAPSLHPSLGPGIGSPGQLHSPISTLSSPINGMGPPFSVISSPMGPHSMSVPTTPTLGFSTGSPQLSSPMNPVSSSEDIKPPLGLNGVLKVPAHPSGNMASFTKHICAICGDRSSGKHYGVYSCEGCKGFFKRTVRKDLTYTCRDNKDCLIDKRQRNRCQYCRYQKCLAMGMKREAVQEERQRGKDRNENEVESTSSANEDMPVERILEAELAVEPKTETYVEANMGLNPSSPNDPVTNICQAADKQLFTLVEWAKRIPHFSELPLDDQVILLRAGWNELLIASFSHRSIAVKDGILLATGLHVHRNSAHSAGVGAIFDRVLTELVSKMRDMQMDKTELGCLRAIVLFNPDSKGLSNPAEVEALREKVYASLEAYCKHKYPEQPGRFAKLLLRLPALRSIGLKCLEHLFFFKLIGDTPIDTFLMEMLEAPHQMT
Assay: HEK293T THR alpha/RXR luciferase reporter assay (Assay 2)
Type: cell-based
Details: Table 4; THR-alpha; Assay 2; read-out: Activity category Assay 2 (EC50, THR-alpha agonist activity)
Procedure: HEK293T Reporter THRalpha/Beta/RXR Reporter Assay (Assay 2) The purpose of this assay is to evaluate the effect of compounds on the thyroid hormone nuclear receptor pathway in HEK293T cells. […] Transfected cells are stimulated with test compounds for 18-24 hours before activation of the thyroid hormone pathway is measured via a luciferase read-out. Procedure. […] Percent agonism is calculated using the following equation: 100× (sample-negative control)/(positive control-negative control).
pEC50: −log10 of the molar value.

## Input What reported pEC50 corresponds to Nc1nn(-c2cc(Cl)c(Oc3n[nH]c(=O)cc3-c3ccc4ccccc4c3)c(Cl)c2)c(=O)[nH]c1=O [Compound 67-A] on THR alpha (Homo sapiens)?
## Output 5.00 to 6.00

* * *

Entries and their pEC50
molecular target: human thyroid receptor alpha ligand-binding domain (LBD) (Homo sapiens, UniProt P10827); assay: TR-FRET thyroid receptor alpha coactivator assay (THR biochemical assay, Assay 1); conditions: Table 4, THR-alpha, read-out: Activity category Assay 1 (EC50, THR-alpha agonist activity)
pEC50: −log10 of the molar value.

N#C[C@@H]1CC[C@H]1c1cc(Oc2c(Cl)cc(-n3nc(N)c(=O)[nH]c3=O)cc2Cl)n[nH]c1=O (relative stereo) [Compound 105]
4.60 to 6.00
Cc1cc(-n2ncc(=O)[nH]c2=O)cc(C)c1Cc1cnc2[nH]cc(C(C)C)c2n1 [Compound 56]
6.00 to 6.60
Nc1nn(-c2cc(Cl)c(Oc3n[nH]c(=O)cc3-c3ccc4ccnn4c3)c(Cl)c2)c(=O)[nH]c1=O [Compound 123]
< 4.60

## Input Please report the recorded pEC50 for Nc1nn(-c2cc(Cl)c(Oc3cc(-c4cnc5ccccc5c4)c(=O)[nH]n3)c(Cl)c2)c(=O)[nH]c1=O [Compound 132] .
## Output < 4.60

## Input Item Cc1cc(-n2ncc(=O)[nH]c2=O)cc(C)c1Cc1ccc2c(c1)C1(CC1)C(=O)N2 [Compound 152] has what recorded pEC50?
## Output > 7.30

## Input Need pEC50, item CC(C)(O)c1cc(Oc2c(Cl)cc(-n3nc(N)c(=O)[nH]c3=O)cc2Cl)n[nH]c1=O [Compound 60]
## Output 4.60 to 6.00

## Input Look up pEC50 for this molecule: CC(C)c1c[nH]c2ccc(Oc3c(Cl)cc(-n4nc(N)c(=O)[nH]c4=O)cc3Cl)cc12 [Compound 41]
## Output > 7.30

* * *

biological target: human thyroid receptor alpha ligand-binding domain (LBD) (Homo sapiens); construct: purchased Invitrogen; test: TR-FRET thyroid receptor alpha coactivator assay (THR biochemical assay, Assay 1); settings: Table 5, THRα, read-out: Activity category Assay 1 THRα (Emax)
resultType: Emax

Example entries begin here.
Cc1cc(-n2ncc(=O)[nH]c2=O)cc(C)c1Cc1ccc2c(c1)C1(CC1)C(=O)N2
50 to 75%
Nc1nn(-c2cc(Cl)c(Oc3cc(C4CC(F)(F)C4)c(=O)[nH]n3)c(Cl)c2)c(=O)[nH]c1=O
< 50%
N#Cc1nn(-c2cc(Cl)c(Oc3ccc4[nH]cc(CC5CC5)c4c3)c(Cl)c2)c(=O)[nH]c1=O
50 to 75%

## Input Given the entry CC(c1ccccc1)c1cc(Oc2c(Cl)cc(-n3nc(N)c(=O)[nH]c3=O)cc2Cl)n[nH]c1=O (single isomer, unassigned) , report its measured Emax.
## Output < 50%

## Input Need Emax, item Nc1nn(-c2cc(Cl)c(Oc3cc(C4CC5(CC5)C4)c(=O)[nH]n3)c(Cl)c2)c(=O)[nH]c1=O
## Output < 50%

## Input Recorded Emax of C=C(C)c1cc(Oc2c(Cl)cc(-n3nc(N)c(=O)[nH]c3=O)cc2Cl)n[nH]c1=O , please.
## Output < 50%

## Input Which Emax value is on record for Cc1cc2cc(Oc3c(Cl)cc(-n4nc(C#N)c(=O)[nH]c4=O)cc3Cl)ccc2[nH]c1=O ?
## Output < 50%

## Input Field request: Emax | item: CC1(C)C(=O)Nc2nnc(Oc3c(Cl)cc(-n4nc(C#N)c(=O)[nH]c4=O)cc3Cl)cc21
## Output < 50%

## Input Using the record for N#Cc1nn(-c2cc(Cl)c(Oc3ccc4[nH]cc(C5CCCC5)c4c3)c(Cl)c2)c(=O)[nH]c1=O , report its Emax.
## Output < 50%

## Input If you can, please state the reported Emax value of Cc1cc(-c2cc(=O)[nH]nc2Oc2c(Cl)cc(-n3ncc(=O)[nH]c3=O)cc2Cl)ccn1 .
## Output < 50%

## Input What value of measured Emax is listed for Nc1nn(-c2cc(Cl)c(Oc3cc(C4Cc5ccccc54)c(=O)[nH]n3)c(Cl)c2)c(=O)[nH]c1=O (stereo not drawn) [Compound 158] ?
## Output < 50%

## Input Suppose we examine the compound Nc1nn(-c2cc(Cl)c(Oc3cc(-c4cccc(Cl)c4)c(=O)[nH]n3)c(Cl)c2)c(=O)[nH]c1=O ; what Emax value has been reported?
## Output < 50%

## Input Param item = COC(=O)c1c[nH]c2ccc(Oc3c(Cl)cc(-n4nc(C#N)c(=O)[nH]c4=O)cc3Cl)cc12 ; retrieve measured Emax.
## Output < 50%

## Input Tell me the measured Emax of Nc1nn(-c2cc(Cl)c(Oc3cc(C4CCC4)c(=O)[nH]n3)c(Cl)c2)c(=O)[nH]c1=O , please.
## Output 50 to 75%

## Input I am curious: what Emax value has been reported for CC(C)[C@@H](C)c1cc(Oc2c(Cl)cc(-n3nc(N)c(=O)[nH]c3=O)cc2Cl)n[nH]c1=O ?
## Output < 50%
